tested on: Mus musculus; test: Anticonvulsant activity in ip dosed albino mouse assessed as inhibition of maximal electric shock-induced seizures after 0.5 hrs; assay type: functional
Activity calls are given as the source filed them. The rule behind the calls is not given here.
PROPERTY MEASURED: Activity

CCc1nc2ccccc2c(=O)n1NC(=O)Nc1ccc(Br)cc1
inactive
Cc1ccccc1NC(=O)Nn1c(-c2ccccc2)nc2ccccc2c1=O
inactive
CCc1nc2ccccc2c(=O)n1NC(=O)Nc1ccc(C)cc1
100 mg/kg
CCc1nc2ccccc2c(=O)n1NC(=O)Nc1ccc(OC)cc1
inactive
CCc1nc2ccccc2c(=O)n1NC(=O)Nc1ccc([N+](=O)[O-])cc1
300 mg/kg

// Activity lookup, compound = `O=C(Nc1ccc(Cl)cc1)Nn1c(-c2ccccc2)nc2ccccc2c1=O` , result: 300 mg/kg

// Activity lookup, compound = `Cc1ccc(NC(=O)Nn2c(-c3ccccc3)nc3ccccc3c2=O)cc1` , result: inactive

// Activity lookup, compound = `CCc1ccc(NC(=O)Nn2c(CC)nc3ccccc3c2=O)cc1` , result: inactive

###

system: Mus musculus; assay: Neurotoxicity in ip dosed albino mouse assessed as minimal motor impairment after 4 hrs by rotarod test; type: toxicity, organism-based; conditions: in vivo
PROPERTY MEASURED: Activity

O=C(Nc1ccc(I)cc1)Nn1c(-c2ccccc2)nc2ccccc2c1=O
Not Active
CCc1nc2ccccc2c(=O)n1NC(=O)Nc1ccc(I)cc1
Not Active
CCc1ccc(NC(=O)Nn2c(-c3ccccc3)nc3ccccc3c2=O)cc1
Not Active
CCc1nc2ccccc2c(=O)n1NC(=O)Nc1ccc(F)cc1
Not Active
CCCC(CCC)C(=O)[O-].[Na+] [VALPROATE SODIUM]
300 mg/kg

Turning now to a further record.
// Activity lookup, compound = `CCOc1ccc(NC(=O)Nn2c(-c3ccccc3)nc3ccccc3c2=O)cc1` , result: Not Active

###

tested on: Mus musculus; assay: Anticonvulsant activity in ip dosed albino mouse assessed as inhibition of maximal electric shock-induced seizures after 0.5 hrs; format: functional
Activity calls are given as the source filed them. The calls are words filed in the database; no cut-off is given here.
PROPERTY MEASURED: Activity

CCC1(c2ccccc2)C(=O)NC(=O)NC1=O
inactive
O=C1NC(=O)C(c2ccccc2)(c2ccccc2)N1
30 mg/kg
CCc1nc2ccccc2c(=O)n1NC(=O)Nc1cccc(C)c1
inactive
CCc1nc2ccccc2c(=O)n1NC(=O)Nc1ccc(Cl)cc1
inactive

Turning now to a further record.
// Activity lookup, compound = `CCc1nc2ccccc2c(=O)n1NC(=O)Nc1ccc(I)cc1` , result: inactive

###

tested on: Mus musculus; assay: Behavioral activity in albino mouse assessed as decrease in locomotor activity at 100 mg/kg, ip by actophotometer; assay type: functional; details: route intraperitoneal
PROPERTY MEASURED: inhibition in vivo at 100 mg/kg (%)
Numbers only; they are read as %.

See these solved cases before continuing.
COc1ccc(NC(=O)Nn2c(-c3ccccc3)nc3ccccc3c2=O)cc1
52
O=C1NC(=O)C(c2ccccc2)(c2ccccc2)N1
69
CCc1nc2ccccc2c(=O)n1NC(=O)Nc1ccc(Br)cc1
54

Record `CCc1nc2ccccc2c(=O)n1NC(=O)Nc1ccccc1` ; system Mus musculus; inhibition in vivo at 100 mg/kg = 54

Record `CCc1nc2ccccc2c(=O)n1NC(=O)Nc1ccccc1C` ; system Mus musculus; inhibition in vivo at 100 mg/kg = 54

Record `CCOc1ccc(NC(=O)Nn2c(-c3ccccc3)nc3ccccc3c2=O)cc1` ; system Mus musculus; inhibition in vivo at 100 mg/kg = 53

Record `CCc1nc2ccccc2c(=O)n1NC(=O)Nc1ccc(F)cc1` ; system Mus musculus; inhibition in vivo at 100 mg/kg = 51
